Cited source for all entries: patent US10208089B2

Tested On: UniProt P01031
Sequence (P01031 19-1676): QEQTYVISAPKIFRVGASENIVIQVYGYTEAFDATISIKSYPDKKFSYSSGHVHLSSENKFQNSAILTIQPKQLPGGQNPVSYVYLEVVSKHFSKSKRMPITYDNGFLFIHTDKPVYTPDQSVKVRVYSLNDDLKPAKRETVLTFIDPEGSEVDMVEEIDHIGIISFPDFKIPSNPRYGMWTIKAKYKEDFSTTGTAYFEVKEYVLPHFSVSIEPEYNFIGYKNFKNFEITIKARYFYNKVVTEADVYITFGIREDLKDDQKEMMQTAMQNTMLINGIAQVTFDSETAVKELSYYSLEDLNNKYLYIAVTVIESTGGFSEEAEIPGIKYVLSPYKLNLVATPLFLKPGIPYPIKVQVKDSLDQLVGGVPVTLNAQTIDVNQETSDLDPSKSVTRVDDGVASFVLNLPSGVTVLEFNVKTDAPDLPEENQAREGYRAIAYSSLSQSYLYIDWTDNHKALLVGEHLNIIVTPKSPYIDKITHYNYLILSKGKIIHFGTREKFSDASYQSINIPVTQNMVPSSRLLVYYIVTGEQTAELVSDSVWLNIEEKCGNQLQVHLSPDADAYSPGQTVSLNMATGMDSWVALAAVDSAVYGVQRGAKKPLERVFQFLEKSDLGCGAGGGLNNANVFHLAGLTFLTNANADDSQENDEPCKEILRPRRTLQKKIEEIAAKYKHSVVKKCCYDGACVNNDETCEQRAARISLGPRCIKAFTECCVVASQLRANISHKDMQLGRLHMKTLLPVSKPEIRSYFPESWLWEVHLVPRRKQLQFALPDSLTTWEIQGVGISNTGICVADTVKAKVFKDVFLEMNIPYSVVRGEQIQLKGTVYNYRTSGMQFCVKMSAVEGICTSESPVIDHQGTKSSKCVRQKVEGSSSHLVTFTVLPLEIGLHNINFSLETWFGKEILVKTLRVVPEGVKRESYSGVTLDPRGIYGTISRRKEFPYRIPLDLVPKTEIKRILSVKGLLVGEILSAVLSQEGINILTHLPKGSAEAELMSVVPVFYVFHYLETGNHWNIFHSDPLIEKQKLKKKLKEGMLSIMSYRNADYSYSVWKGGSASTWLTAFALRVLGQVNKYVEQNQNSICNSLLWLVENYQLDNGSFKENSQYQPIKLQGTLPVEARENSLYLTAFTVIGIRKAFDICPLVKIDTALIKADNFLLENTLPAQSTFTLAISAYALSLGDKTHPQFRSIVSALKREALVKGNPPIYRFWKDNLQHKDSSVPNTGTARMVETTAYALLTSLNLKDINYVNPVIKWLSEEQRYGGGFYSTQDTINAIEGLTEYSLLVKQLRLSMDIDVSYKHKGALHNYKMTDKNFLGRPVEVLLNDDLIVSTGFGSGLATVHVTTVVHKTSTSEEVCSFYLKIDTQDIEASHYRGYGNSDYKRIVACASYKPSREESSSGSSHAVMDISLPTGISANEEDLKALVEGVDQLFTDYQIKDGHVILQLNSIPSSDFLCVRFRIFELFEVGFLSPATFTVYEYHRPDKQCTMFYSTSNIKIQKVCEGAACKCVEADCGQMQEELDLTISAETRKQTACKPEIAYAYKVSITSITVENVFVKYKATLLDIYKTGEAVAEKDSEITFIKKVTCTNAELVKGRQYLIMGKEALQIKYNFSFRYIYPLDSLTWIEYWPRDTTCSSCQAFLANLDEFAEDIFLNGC
Assay Explanation: Competitive fluorescence polarization assay with probe R3076
Assay type: binding
Design: purchased Complement Technology, Tyler, Tex
Applied Conditions: competition with probe R3076 25 nM, C5 50 nM, 60 min at 25° C.; experiment 1; read-out: Ki nM, Exp 1
Starred links: 1 amine or outer side, 2 acyl side, 3 side chain; linkers in the order of their positions; H or OH if unused. Positions of bridges follow the written chain, without caps; N, C: chain ends. Non-standard residues stand in square brackets, D forms with d. Residues, ends and D or L forms follow the SMILES beside them. Trp(7-aza) = N[C@@H](Cc1c[nH]c2ncccc12)C(=O)O; mXylylene = c1cc(C[*:1])cc(C[*:2])c1; pXylylene = c1cc(C[*:2])ccc1C[*:1]; Phg = N[C@H](C(=O)O)c1ccccc1; Tle = CC(C)(C)[C@H](N)C(=O)O; NMeS = CN[C@@H](CO)C(=O)O; Nva = CCC[C@H](N)C(=O)O
Documented Ki across a set of compounds
Quick reminder: number only, in nM, skip the unit.

Sample records with Ki:
{"Compound": "CCC[C@H](NC(C)=O)C(=O)N[C@H]1CSCc2cccc(c2)CSC[C@@H](C(=O)N[C@@H](CCC)C(=O)N2CCC[C@H]2C(N)=O)NC(=O)[C@H](Cc2c[nH]cn2)NC(=O)[C@H](CO)N(C)C(=O)[C@H](Cc2ccc(O)cc2)NC(=O)[C@H](CCC(=O)O)NC(=O)[C@H](Cc2c[nH]c3ncccc23)NC(=O)[C@H]([C@@H](C)O)NC(=O)[C@H](c2ccccc2)NC1=O [Compound R3011] (Ac-[Nva]C[Phg]T[Trp(7-aza)]EY[NMeS]HC[Nva]P-NH2; linker 2-10 via mXylylene)", "Tested On": "UniProt P01031", "Unit Abbrev": "nM", "Ki": 73.2}
{"Compound": "CCC[C@H](NC(C)=O)C(=O)N[C@@H](CS)C(=O)N[C@@H](Cc1ccc(O)cc1)C(=O)N[C@@H](CCC(=O)O)C(=O)N[C@@H](CC(N)=O)C(=O)N[C@H](C(=O)N[C@@H](Cc1ccc(O)cc1)C(=O)N[C@@H](Cc1c[nH]c2ncccc12)C(=O)N[C@@H](CCC(=O)O)C(=O)N[C@@H](Cc1ccc(O)cc1)C(=O)N1CCC[C@H]1C(=O)N[C@H](C(=O)N1CCC[C@H]1C(N)=O)c1ccccc1)C(C)(C)C [Compound R3003] (Ac-[Nva]CYEN[Tle]Y[Trp(7-aza)]EYP[Phg]P-NH2)", "Tested On": "UniProt P01031", "Unit Abbrev": "nM", "Ki": 10.4}
{"Compound": "CCC[C@H](NC(=O)[C@@H]1CSCc2ccc(cc2)CSC[C@H](NC(=O)[C@H](CCC)NC(C)=O)C(=O)N[C@@H](c2ccccc2)C(=O)N[C@@H]([C@@H](C)O)C(=O)N[C@@H](Cc2c[nH]c3ncccc23)C(=O)N[C@@H](CCC(=O)O)C(=O)N[C@@H](Cc2ccc(O)cc2)C(=O)N(C)[C@@H](CO)C(=O)N[C@@H](Cc2c[nH]cn2)C(=O)N1)C(N)=O [Compound R3050] (Ac-[Nva]C[Phg]T[Trp(7-aza)]EY[NMeS]HC[Nva]-NH2; linker 2-10 via pXylylene)", "Tested On": "UniProt P01031", "Unit Abbrev": "nM", "Ki": 71.1}

API: the following record is the query input.
Q: Field request: Ki | item: CSCC[C@H](N)C(=O)N[C@H]1CSCc2cccc(c2)CSC[C@@H](C(=O)N[C@@H](CC(=O)O)C(=O)N[C@H](C(=O)N[C@@H](Cc2ccc(O)cc2)C(=O)N[C@@H](Cc2c[nH]c3ccccc23)C(=O)N[C@@H](CCC(=O)O)C(N)=O)C(C)C)NC(=O)[C@H](Cc2ccccc2)NC(=O)[C@H](CCCNC(=N)N)NC(=O)[C@H](CCC(=O)O)NC(=O)[C@H](C(C)C)NC1=O [Compound R3043, [mXylyl(2,7)]M-C-V-E-R-F-C-D-V-Y-W-E-NE2] (H-MCVERFCDVYWE-NH2; linker 2-7 via mXylylene)
Result: 866
